For each record, write down the corresponding Maximum absorption wavelength.
# Test: Maximum absorption wavelength (λmax) after color development, spectrophotometer MCPD3000
# Format: physicochemical
# Condition context: photochromic cured product, thickness 1 mm (kneading method); after color development
# From the text: • [1] Maximum Absorption Wavelength (λmax): The maximum absorption wavelength after color development, measured using a spectrophotometer (instantaneous multichannel photodetector MCPD3000) manufactured by Otsuka Electronics Co., Ltd. was used as an indicator for the color tone during the color development. • [2] […]
Give your result in nm as a bare value.

What Maximum absorption wavelength value was documented for this compound, COc1ccc(C2(c3ccc(OC)cc3)C=Cc3c4c(c5cc(N6CCc7ccccc76)c(-c6ccc(OC)cc6OC)cc5c3O2)-c2ccccc2C4(C)C)cc1 [Formula (I), reference compound] ?
526

Also check COc1ccc(C2(c3ccc(OC)cc3)C=Cc3c4c(c5cc(N6CCc7ccccc76)c(OC)cc5c3O2)-c2ccccc2C4(C)C)cc1 [Formula (28A)]
536

Also check CCC1(CC)c2cc(C)ccc2-c2c1c1c(c3cc(C)c(N4CCc5ccccc54)cc23)OC(c2ccc(C)cc2)(c2ccc(OC)cc2)C=C1 (centres unmarked) [Formula (42A)]
539

Also check COc1ccc(C2(c3ccc(OC)c(OC)c3)C=Cc3c4c(c5cc(N6CCc7ccccc76)c(OC)cc5c3O2)-c2ccccc2C4(CCC(F)(F)F)CCC(F)(F)F)cc1 (centres unmarked) [Formula (67A)]
531

Also check CCCOc1ccc(C2(c3ccc(OCCC)cc3)C=Cc3c4c(c5cc(N6CCc7ccccc76)c(OC)cc5c3O2)-c2ccc(-c3ccc(C)cc3)cc2C42CCCCCCC2)cc1 [Formula (35A)]
535

Reference for the values: patent EP4692071A1
